Where do these numbers come from? They come from PubChem BioAssay (Tox21).

methodDescription: Nuclear factor erythroid 2-related factor 2/antioxidant responsive element (Nrf2/ARE) small molecule agonists: qHTS cell viability counter screen in human keratinocytes (AID 1919968); also: nearly all actives have a fitted effect of over 55% in size
conditionsUsed: KeratinoSens HaCaT ARE cells viability, CellTiter-Fluor, 24 h; series mostly up to 92.4 µM
Records with an inconclusive call do not appear. Activity calls are given as the source filed them. Calls follow the shape of the dose curve; as a rule, active = well fitted cell-killing curve with a large enough effect in the repeat runs; inconclusive = weak or mixed curves, or effect the other way; inactive = flat fitted curve, though single readings scatter.
Classes used: 1 (yes) (active), 0 (no) (inactive)

molecule: CCCCCCCCCCCCN(CCO)CCO
className: 1 (yes)
//
molecule: CCCCCCCC1CCCC1=O (stereo unspecified)
className: 0 (no)
//
molecule: CCN(CC)C(=O)N1CCN(C)CC1
className: 0 (no)
//
molecule: O=C1CCCC(=O)C1
className: 0 (no)
//
molecule: O=C(O)c1cc(C(=O)O)c(C(=O)O)cc1C(=O)O
className: 0 (no)
//
molecule: Cc1cccc(C)c1OCC(C)N (stereo unspecified)
className: 0 (no)
//
molecule: CCCCCc1ccc(Cl)cc1
className: 0 (no)
//
molecule: Cc1oc(=O)oc1COC(=O)[C@@H]1N2C(=O)[C@@H](NC(=O)[C@H](N)c3ccccc3)[C@H]2SC1(C)C
className: 0 (no)
//
molecule: CCC(=O)O[C@]1(C(=O)CCl)[C@@H](C)C[C@H]2[C@@H]3CCC4=CC(=O)C=C[C@]4(C)[C@@]3(F)[C@@H](O)C[C@@]21C
className: 0 (no)
//
molecule: Cc1nc2ccc(Cl)cc2[nH]1
className: 0 (no)
//
molecule: CCOCCn1c(C2CCN(CCc3ccc(C(C)(C)C(=O)O)cc3)CC2)nc2ccccc21
className: 0 (no)
//
molecule: CN(C)CCCOC1(Cc2ccccc2)CCCCCC1
className: 0 (no)
//
molecule: O=C(NC(Cc1cc(=O)[nH]c2ccccc12)C(=O)O)c1ccc(Cl)cc1 (stereo unspecified)
className: 0 (no)
//
molecule: Oc1ccc(-c2ccc(O)cc2)cc1
className: 0 (no)
//
molecule: CC1CCc2c(N3CCC(O)CC3)c(F)cc3c(=O)c(C(=O)O)cn1c23 (stereo unspecified)
className: 0 (no)
//
molecule: C=CC(=O)OCCCl
className: 0 (no)
//
molecule: Cc1c(C(=O)NCCO)[n+](=O)c2ccccc2n1[O-]
className: 0 (no)
//
molecule: COc1cc(CNC(=O)CCCC/C=C/C(C)C)ccc1O
className: 0 (no)
//
molecule: CCCCCCCCCCCCN1CCOCC1
className: 0 (no)
//
molecule: O=[N+]([O-])c1c(Cl)cc(Cl)cc1Cl
className: 0 (no)
//
molecule: CO[Si](CCCS)(OC)OC
className: 0 (no)
//
molecule: CC(C)NNC(=O)c1ccncc1
className: 0 (no)
//
molecule: CC(C)CCOC(=O)CC(C)C
className: 0 (no)
//
molecule: CCCCC(CC)(CO)CO
className: 0 (no)
//
molecule: CCC1=C(C)CN(C(=O)NCCc2ccc(S(=O)(=O)NC(=O)NC3CCC(C)CC3)cc2)C1=O (stereo unspecified)
className: 0 (no)
//
molecule: NS(=O)(=O)c1cc(C(=O)O)cc(N2CCCC2)c1Oc1ccccc1
className: 0 (no)

---

methodDescription: p53 small molecule agonists, cell-based qHTS assay with rat liver microsomes: qHTS cell viability counter screen (AID 1963580); also: nearly all actives have a fitted effect of over 45% in size
conditionsUsed: p53RE-bla HCT-116 + rat microsomes, ATP viability, 16 h; series mostly up to 66 µM
Records with an inconclusive call do not appear. Calls of active or inactive are those of the source. The call rests on the fitted dose curve.

compound: C/C=C(\C)C#N
activity change, negative = cytotoxicity: inactive
--
compound: O=NN(CCCl)C(=O)NCCCl
activity change, negative = cytotoxicity: inactive
--
compound: CN1CCCCC1CCN1c2ccccc2Sc2ccc(S(C)=O)cc21 (stereo unspecified)
activity change, negative = cytotoxicity: inactive
--
compound: ClC(Cl)(Br)Br
activity change, negative = cytotoxicity: inactive
--
compound: C[C@@H]1[C@H](O)[C@@H](C)/C=C/C=C\C=C\C=C\C=C\C=C\C=C\[C@H](O[C@@H]2O[C@H](C)[C@@H](O)[C@H](N)[C@@H]2O)C[C@@H]2O[C@](O)(C[C@@H](O)C[C@@H](O)[C@H](O)CC[C@@H](O)C[C@@H](O)CC(=O)O[C@H]1C)C[C@H](O)[C@H]2C(=O)O (stereo in doubt)
activity change, negative = cytotoxicity: inactive
--
compound: CCCCOCCOC(=O)c1cccnc1
activity change, negative = cytotoxicity: inactive
